Origin of values: the supplement of paper PMC4862054

test system: BT-474; assay: normalised viability (% of control), CellTiter-Blue; higher = more viable cells (about 100 = DMSO control); conditions: 100 nM; incubation time: 72 h
Answer each item with its documented normalised viability.
Answers are plain numbers, in %.

A selection of reference data follows.
>>> measurement("Cc1ccc(C(=O)N(CCCN)[C@@H](c2oc3cc(Cl)ccc3c(=O)c2Cc2ccccc2)C(C)C)cc1")
27.5
>>> measurement("CCN(CCCOc1ccc2c(Nc3cc(CC(=O)Nc4cccc(F)c4)[nH]n3)ncnc2c1)CCOP(=O)(O)O")
95.1
>>> measurement("Cc1ccc(C(=O)Nc2ccc(CN3CCN(C)CC3)c(C(F)(F)F)c2)cc1C#Cc1cnc2cccnn12")
110

Proceed to the following item.
Record CO[C@H]1/C=C\C=C(/C)C(=O)NC2=CC(=O)C(NCCN(C)C)=C(C[C@@H](C)C[C@H](OC)[C@H](O)[C@@H](C)/C=C(\C)[C@@H]1OC(N)=O)C2=O : what is its normalised viability with BT-474?
28.3
